# Test System: Metabotropic glutamate receptor 2 (Homo sapiens)
# Sequence (Q14416 whole entry): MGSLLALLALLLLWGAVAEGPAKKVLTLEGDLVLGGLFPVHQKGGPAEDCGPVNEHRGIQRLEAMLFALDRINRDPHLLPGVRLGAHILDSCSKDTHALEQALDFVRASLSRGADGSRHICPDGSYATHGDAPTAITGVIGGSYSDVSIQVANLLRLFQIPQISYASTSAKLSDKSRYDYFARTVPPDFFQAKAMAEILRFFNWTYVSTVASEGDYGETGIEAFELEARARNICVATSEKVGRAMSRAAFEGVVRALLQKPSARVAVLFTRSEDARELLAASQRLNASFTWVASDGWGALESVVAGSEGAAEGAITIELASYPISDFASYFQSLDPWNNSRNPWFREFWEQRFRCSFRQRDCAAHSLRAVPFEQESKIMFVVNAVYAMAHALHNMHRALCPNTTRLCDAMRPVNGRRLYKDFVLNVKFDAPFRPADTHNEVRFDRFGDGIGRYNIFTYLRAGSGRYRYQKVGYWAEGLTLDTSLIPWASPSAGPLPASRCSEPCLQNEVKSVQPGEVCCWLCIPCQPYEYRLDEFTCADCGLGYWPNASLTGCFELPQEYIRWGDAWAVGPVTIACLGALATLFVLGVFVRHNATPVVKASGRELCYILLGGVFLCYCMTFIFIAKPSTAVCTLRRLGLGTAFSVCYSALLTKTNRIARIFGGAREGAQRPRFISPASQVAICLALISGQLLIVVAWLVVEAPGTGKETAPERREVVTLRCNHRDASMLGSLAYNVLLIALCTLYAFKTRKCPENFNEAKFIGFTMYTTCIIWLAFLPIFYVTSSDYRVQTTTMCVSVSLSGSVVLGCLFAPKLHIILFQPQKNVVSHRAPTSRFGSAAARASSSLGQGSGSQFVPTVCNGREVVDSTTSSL
# Test Description: Antagonistic activity against mGluR2 was determined
# Type: functional
Readout Name: pIC50
Would you please state pIC50, meaning minus log10 of the concentration in mol/L, as a bare number?

Task item: What value of measured pIC50 is listed for CC(N)(C(=O)O)c1ccc(C(=O)O)cc1 (stereo unspecified) ?
Reply: 4.30

* * *

# Test System: Glutamate NMDA receptor
# Test Description: Binding affinity towards Ionotropic glutamate receptor NMDA
pKi: −log10 of the molar value.
pKi values for the compounds below.

1) N[C@@H](C(=O)O)[C@H]1[C@H](C(=O)O)[C@@H]1c1ccccc1 :: < 3.70
2) N[C@H](C(=O)O)[C@H]1[C@@H](C(=O)O)[C@H]1c1ccccc1 :: < 3.70
3) N[C@@H](C(=O)O)[C@@H]1[C@H](C(=O)O)[C@H]1c1ccccc1 (stereo in doubt; 44) :: < 3.70
4) N[C@H](C(=O)O)[C@H]1[C@@H](C(=O)O)[C@@H]1c1ccccc1 :: < 3.70
5) N[C@@H](C(=O)O)[C@@H]1[C@@H](C(=O)O)[C@H]1c1ccccc1 :: 4.54

Now take the following compound into account.
Task item: What value of measured pKi is listed for `N[C@H](C(=O)O)[C@@H]1[C@@H](C(=O)O)[C@@H]1c1ccccc1` ?
Reply: < 3.70

* * *

# Test System: Metabotropic glutamate receptor 2 (Homo sapiens)
# Test Description: Effective concentration forskolin-stimulated cAMP formation in BHK cells expressing mGluR2 receptor
# Type: functional, cell-based
# Condition Description: bhk
Readout Name: EC50

Task item: What value of measured EC50 is listed for N[C@@H](C(=O)O)[C@@H]1[C@H](C(=O)O)[C@H]1c1ccccc1 (stereo in doubt; 47) ?
Reply: > 300 µM

* * *

Ki values for the compounds below.
# Test System: Glutamate NMDA receptor
# Test Description: Binding affinity towards Ionotropic glutamate receptor NMDA
Just the number please, in µM, no unit attached.

Previously resolved entries follow.
1) N[C@H](C(=O)O)[C@@H]1[C@@H](C(=O)O)[C@H]1c1ccccc1 :: 192
2) N[C@@H](C(=O)O)[C@H]1[C@@H](C(=O)O)[C@@H]1c1ccccc1 :: 123
3) N[C@H](C(=O)O)[C@H]1[C@H](C(=O)O)[C@@H]1c1ccccc1 :: 25

Task item: What value of measured Ki is listed for `N[C@H](C(=O)O)[C@H]1[C@H](C(=O)O)[C@H]1c1ccccc1` ?
Reply: 107

Task item: What value of measured Ki is listed for `N[C@@H](C(=O)O)[C@H]1[C@H](C(=O)O)[C@H]1c1ccccc1` ?
Reply: 129

Task item: What value of measured Ki is listed for `N[C@@H](C(=O)O)[C@@H]1[C@@H](C(=O)O)[C@@H]1c1ccccc1` ?
Reply: 193

* * *

# Test System: Metabotropic glutamate receptor 2 (Homo sapiens)
# Test Description: Concentration required for the half-maximal inhibition of cAMP formation in BHK cells expressing mGluR2
# Assay type: functional, cell-based
pIC50: −log10 of the molar value.
Readout Name: pIC50

Task item: Which pIC50 is reported with Metabotropic glutamate receptor 2 (Homo sapiens) for this entry: `N[C@H](C(=O)O)[C@H]1[C@H](C(=O)O)[C@H]1c1ccccc1` ?
Reply: < 3.52
